Test system: SF-539 CNS
Assay: NCI-60 one-dose screen, 48 h
Settings: 10 µM unless noted
Description: Cells are grown in 96 well plates and exposed to the test compound for 48 hours. Compounds are tested at a single concentration, which is 10^-5 M for most compounds. The reported endpoint is percent growth (GI% or GIPRCNT), where numbers from 0 - 100% represent growth inhibition, and numbers from -100% - 0 represent cell death. For example, a value of 40 represents 60% growth inhibition. A value of 0 means no net growth occurred over the course of the experiment. […]
About 83,000 compounds went through this panel and 20% of them were active in at least one assay; those are over-represented in the sample as a whole. Activity calls are given as the source filed them. Rule for the calls: active = growth percent below 10; inactive = the rest.
Respond using exactly one of the listed classes: t (active), f (inactive)

compound	class-name
Cc1c(Cl)ccc2c(C(=O)Cl)cc(-c3ccccc3)nc12	f
CN(C)c1ccc(/C=N/n2c(-c3cc(F)c(Cl)cc3Cl)nn(CN3CCOCC3)c2=S)cc1	f
Cc1cccc(NCS(=O)(=O)O)c1	f
N#Cc1c(N)nc(Cl)c(C#N)c1C(=O)c1ccccc1	f
O=C(Nc1ccc(-n2ccc3c(NC(=O)c4ccccc4)ncnc32)cc1)c1cccc(C(F)(F)F)c1	f
C=C1C(=O)O[C@H]2[C@H]1CC/C(COC(=O)n1ccnc1C)=C\CC[C@@]1(C)O[C@@H]21	f
Cc1cc(O[C@@H]2O[C@@H](C)[C@H](O)[C@@H](O)[C@H]2O)c2c3c(c(O[C@@H]4O[C@@H](C)[C@H](O)[C@@H](O)[C@H]4O)cc2c1)C(=O)c1c(O)cccc1C3=O	f
CC(C(=O)O)N1C(N)=NNC1c1ccccc1O (centres undefined)	f
CC(/C=C/C=C(\C)[C@H](O)[C@H](C)C(=O)O[C@H]1C[C@H](C)C=C2C=C[C@@]3(C)O[C@@H](O)CC(=O)[C@]3(C)[C@H]21)=C\C=C\C(=O)O	t
COc1ccccc1S(=O)(=O)Nc1ccc2c3c(cc(-c4cnn(C5CC5)c4)nc13)C(=O)N2C	f

Problem: Status in this test for CC(C)CNCC(=O)Nc1ccc(Cc2ccc(NC(=O)CNCC(C)C)cc2)cc1 ?
Solution: f

Problem: Name the outcome recorded for O=c1[nH]ccc2nc(N3CCC(O)CC3)nc(Nc3cccc(C(F)(F)F)c3)c12 in the assay.
Solution: f

Problem: Each compound tested received a call. Report the one for Cc1c(NC(=O)c2sc3nc4c(cc3c2N)CN(Cc2ccccc2)CC4)cccc1C(F)(F)F .
Solution: f

----------
System: NCI/ADR-RES ovarian
Assay: NCI-60 one-dose screen, 48 h
Conditions: 10 µM unless noted
The panel holds about 83,000 compounds, 20% with a hit somewhere; the sample as a whole holds those more often. Calls of active or inactive are those of the source. How the source made its calls: active means growth percent below 10; inactive means the rest.
Classes to choose from: t = active, f = inactive

Examples with answers:
compound	class-name
COc1ccc2c(c1)OC(N)=C(C#N)C2c1ccc(F)cc1 (stereo unspecified)	f
COc1ccc(-c2nn(-c3ccc(NC(=O)Nc4cc(C(F)(F)F)cc(C(F)(F)F)c4)cc3)cc2-c2ccncc2)cc1Cl	f
COc1ccc(OCC(O)CN2CCN(c3ccc(Cl)cc3)CC2)cc1 (stereo unspecified)	f
O=C(Cn1c2ccccc2c2ccncc21)N/N=C/c1cc(O)c(O)c(O)c1	f
COc1ccc(OC)c(NCC(=O)n2nc(/C=C\c3ccc(O)c(OC)c3)cc2/C=C\c2ccc(O)c(OC)c2)c1	f
CC(=O)N1N=C2N(Cc3ccccc3)C(=O)c3c(sc4c3CCCC4)N2C1c1cn(-c2ccccc2)nc1-c1ccc(Cl)cc1 (stereo unspecified)	f

Problem: # fetch the recorded call for O=C(O)c1ccc(-n2cc(/C=N/Nc3ccc(F)cc3)c(-c3cccc(C(F)(F)F)c3)n2)cc1 here
Solution: f

Problem: Record lookup: outcome of this test for O=C1COc2ccccc2C(=O)N1CCCCN1CCCCC1 ?
Solution: f

Problem: In this assay, the call recorded for CCn1cc(/C=C2\Oc3cc(OCC#N)ccc3C2=O)c2cc(OC)ccc21 was what?
Solution: f

Problem: Which outcome was assigned to Cc1nc(N)nc(SCc2ccccc2)c1Br in this test?
Solution: f

Problem: Query: recorded result category for CCC1S/C(=N\N=C(/C)c2cccs2)N(c2ccccc2)C1=O (stereo unspecified) in this test
Solution: f

Problem: I would be grateful if you could indicate the recorded call for O=C(Nc1ccc(-n2ccc3c(NC(=O)c4ccccc4)nccc32)cc1)Nc1ccc(Cl)c(Cl)c1 .
Solution: t

Problem: Look up the recorded call for OC(COc1ccccc1Cl)CN1CCN(c2ccc(Cl)cc2)CC1 (stereo unspecified) in this test.
Solution: f

Problem: Which outcome did this test record for the compound Nc1ncnc2c1ncn2C1OC(COC(c2ccccc2)(c2ccccc2)c2ccccc2)C(O)C1O (stereo unspecified) ?
Solution: f

Problem: Hi team, can someone confirm the assay call for COc1ccc(/C=N/C2=NNC(C)(c3ccccc3O)N2C(Cc2c[nH]c3ccccc23)C(=O)O)cc1 (stereo unspecified) ?
Solution: f

Problem: Fill in: this test's call for COc1ccccc1P(c1ccccc1OC)c1ccccc1OC is ___
Solution: f

Problem: For Cc1cc(N2CCOCC2)nc(N(CCNc2ccnc3cc(Cl)ccc23)Cc2ccco2)n1 , what call appears in the results of this test?
Solution: f

Problem: I'd appreciate the recorded outcome for COc1ccc(C2=NN(C(=O)COc3ccc(Cl)cc3)C(O)(c3cc(F)c(Cl)cc3Cl)C2)cc1OC (stereo unspecified) from this test.
Solution: f

Problem: Just curious, what result did O=C1COc2ccccc2C(=O)N1CCCCNc1ccccc1 get here?
Solution: f

Problem: In this assay, the call recorded for O=S(c1ccccc1)c1ccc2nnnn2n1 (stereo unspecified) was what?
Solution: f

Problem: What outcome does the record of this test show for CCOc1ccc(NC(=O)Nc2cc(C(C)C)ccc2C)cc1 ?
Solution: f

----------
Tested on: M14 melanoma
Experiment: NCI-60 one-dose screen, 48 h (100 = growth as untreated, 0 = no growth, -100 = all killed)
Settings: 10 µM unless noted
The panel holds about 83,000 compounds, 20% with a hit somewhere; the sample as a whole holds those more often.
Collected growth values appear next to each entry.
Numbers only here, please. The scale is %.

compound	result-value
Nc1c(C(=O)O)[nH]c(=O)[nH]c1=O	103
CCCOC(=O)c1ccc([N+](=O)[O-])o1	98.8

growth reading for OC[C@@H](O)C(O[C@@H]1O[C@H](CO)[C@H](O)[C@H](O)[C@H]1O)[C@H](O)[C@@H](O)CO (stereo not given in full) : 99.9

Please fill in: growth reported for O=C(/C=C/c1ccccc1)Oc1ccc(/C=C/c2cc(OC(=O)/C=C/c3ccccc3)cc(OC(=O)/C=C/c3ccccc3)c2)cc1 = 100

The recorded growth for entry COc1ccc2c(c1)OC(N)=C(C#N)C2c1ccc(F)c(F)c1 (stereo not given) equals 18.8

Entry under test: Nc1nc(=S)ss1 . Its growth was 101

For reference, reported growth for S=c1n(CNc2ccc(Cl)nn2)nc(-c2cc(Cl)cc(Cl)c2Cl)n1/N=C/c1ccc(Cl)cc1 stands at 55.8

Noted for CC(=O)CC/C=C(\C)[C@H](O)[C@H](C)C(=O)O[C@H]1C[C@H](C)C=C2C=C[C@@]3(C)O[C@@H](O)CC(=O)[C@]3(C)[C@H]21 : its growth reads -84.2

Reported growth of Cc1c(F)cccc1NC(=O)c1sc2nc3c(cc2c1N)CCCCC3 : 28.2

In plain terms, COc1ccccc1N1CCN(CC(O)COc2c(Br)c(Br)c(Br)c3c2OC(C)(C)C3)CC1 (stereo not given) has a documented growth of 29.9

----------
Test system: RPMI-8226 leukemia
Test: NCI-60 one-dose screen, 48 h (100 = growth as untreated, 0 = no growth, -100 = all killed)
Conditions: 10 µM unless noted
The panel holds about 83,000 compounds, 20% with a hit somewhere; the sample as a whole holds those more often. Activity calls are given as the source filed them. The calls were made as follows: active = growth percent below 10; inactive = the rest.
attribute-measured: growth

Some solved cases for reference:
1) CN(C)CCS(=O)(=O)Nc1cc(-c2ccc3ncnc(Nc4ccc(F)c(Cl)c4)c3c2)cnc1Cl -39.9% (active)
2) CCCC(=O)Oc1ccc(/C(=C(\C)c2ccc(OC)cc2)c2ccc(OCCN3CCCCC3)cc2)cc1 56.9% (inactive)

Now consider a different compound.
Reading of growth for COc1ccc(Cl)cc1NC(=O)c1cc2c(n1C)-c1nc(NC(=O)C(C)C)sc1CC2 with RPMI-8226 leukemia: 82.7% (inactive)

----------
System: HOP-92 NSCLC
Experiment: NCI-60 one-dose screen, 48 h
Conditions: 10 µM unless noted
This is part of a sample that, as a whole, favours compounds with a hit. Of some 83,000 tested, about 20% had one in any assay. Calls of active or inactive are those of the source. The calls were made as follows: active = growth percent below 10; inactive = the rest.
Parameter call: string, one of yes (1) (active), no (0) (inactive)

Problem: Can you look up the reported call for O=S(=O)(Nc1cccc2cc(OS(=O)(=O)c3ccccc3)ccc12)c1ccccc1 for me?
Solution: no (0)

Problem: // param item: COc1cc(/C=C/C(=O)c2c(C)n([O-])c3cc(C)c(C)cc3[n+]2=O)cc(OC)c1OC ; yields the recorded call
Solution: no (0)
